# experimental target: recombinant full-length WRN protein (1-1432) (Homo sapiens, UniProt Q14191)
# Construct: recombinant full-length WRN protein (1-1432)
# Sequence (Q14191 whole entry): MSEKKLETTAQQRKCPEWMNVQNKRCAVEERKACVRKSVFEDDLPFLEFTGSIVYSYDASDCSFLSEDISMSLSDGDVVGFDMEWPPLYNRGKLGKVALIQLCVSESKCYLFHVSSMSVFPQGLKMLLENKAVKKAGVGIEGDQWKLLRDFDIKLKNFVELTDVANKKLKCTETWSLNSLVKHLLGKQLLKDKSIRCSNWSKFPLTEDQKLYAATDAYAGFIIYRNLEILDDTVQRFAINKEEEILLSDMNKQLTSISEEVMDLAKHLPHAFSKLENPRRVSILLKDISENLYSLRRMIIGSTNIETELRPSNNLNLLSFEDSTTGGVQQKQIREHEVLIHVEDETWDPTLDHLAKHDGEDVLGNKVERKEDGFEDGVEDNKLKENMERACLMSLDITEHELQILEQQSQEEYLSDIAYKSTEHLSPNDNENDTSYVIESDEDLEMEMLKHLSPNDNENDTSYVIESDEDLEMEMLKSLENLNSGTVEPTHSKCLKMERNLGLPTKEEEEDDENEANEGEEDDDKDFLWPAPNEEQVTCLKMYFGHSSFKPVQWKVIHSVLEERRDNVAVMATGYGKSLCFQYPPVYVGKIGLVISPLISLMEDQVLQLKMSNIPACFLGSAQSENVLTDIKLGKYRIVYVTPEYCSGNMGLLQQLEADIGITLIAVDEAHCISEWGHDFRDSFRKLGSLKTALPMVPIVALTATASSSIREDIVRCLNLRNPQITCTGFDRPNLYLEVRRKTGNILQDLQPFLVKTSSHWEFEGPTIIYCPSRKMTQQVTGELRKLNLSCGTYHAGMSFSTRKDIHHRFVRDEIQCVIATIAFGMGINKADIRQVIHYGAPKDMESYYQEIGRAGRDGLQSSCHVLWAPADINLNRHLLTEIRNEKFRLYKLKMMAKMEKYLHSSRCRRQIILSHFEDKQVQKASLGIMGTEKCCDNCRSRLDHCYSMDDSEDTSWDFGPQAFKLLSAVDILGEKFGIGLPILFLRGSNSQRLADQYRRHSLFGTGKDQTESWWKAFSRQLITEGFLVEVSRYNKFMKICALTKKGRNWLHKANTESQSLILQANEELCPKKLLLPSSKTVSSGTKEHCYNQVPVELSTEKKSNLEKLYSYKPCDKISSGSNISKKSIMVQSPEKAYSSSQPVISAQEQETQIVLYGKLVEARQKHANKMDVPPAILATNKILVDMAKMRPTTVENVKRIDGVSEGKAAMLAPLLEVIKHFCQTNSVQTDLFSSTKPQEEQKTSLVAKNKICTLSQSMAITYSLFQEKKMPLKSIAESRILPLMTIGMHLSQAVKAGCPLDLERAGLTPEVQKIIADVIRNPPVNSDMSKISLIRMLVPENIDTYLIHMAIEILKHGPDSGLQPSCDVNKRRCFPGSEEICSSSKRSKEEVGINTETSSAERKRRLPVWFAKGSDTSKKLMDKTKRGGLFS
# experimental details: WRN unwinding activity, fluorogenic 384-well assay (Example A)
# Format: biochemical
# assay context: WRN unwinding activity, 4 hr; Table 2; read-out: 4 hr UNW pIC50 (converted)
recorded metric: IC50 (nM)

// solved cases for IC50 follow
compound | IC50 [nM]
Cc1cc(N(C)S(=O)(=O)c2ccc3c(c2)nc(C)n3C)ccc1[C@H]1CCC[C@@H](C(=O)Nc2ccc(C(F)(F)F)cc2F)[C@@H]1C(=O)O (stereo in doubt) | 3.98
Cc1nc2cc(S(=O)(=O)N(C)c3ccc([C@@H]4C[C@H](OC(F)F)C[C@H](C(=O)Nc5ccc(C(F)(F)F)cc5F)[C@H]4C(=O)O)cc3)ccc2n1C (stereo in doubt) | 631
Cc1nc2cc(S(=O)(=O)N(C)c3ccc([C@H]4CCC[C@@H](C(=O)NC56CC(C)(C5)C6)[C@@H]4C(=O)O)cc3)ccc2n1C (racemic) | 5010
Cc1nc2cc(S(=O)(=O)N(C)c3ccc([C@H]4C[C@@H](OCC5CC6CCC(C5)O6)C[C@@H](C(=O)Nc5ccc(C(F)(F)F)cc5F)[C@@H]4C(=O)O)cc3)ccc2n1C (single isomer, unassigned) | 5.01
Cc1nc2cc(S(=O)(=O)N(C)c3ccc([C@@H]4CCC[C@H](C(=O)Nc5ccc(C(F)(F)F)cc5F)[C@H]4C(=O)O)nc3)ccc2n1C (single isomer, unassigned) | 50.1

a: Cc1nc2cc(S(=O)(=O)N(C)c3ccc([C@H]4C[C@@H](N5CCOCC5)C[C@@H](C(=O)Nc5ccc(C(F)(F)F)cc5F)[C@@H]4C(=O)O)cc3)ccc2n1C (single isomer, unassigned) [Example 337]
b: Cc1nc2cc(S(=O)(=O)N(C)c3ccc([C@H]4C[C@@H](O)C[C@@H](C(=O)Nc5ccc(C(F)(F)F)cc5F)[C@@H]4C(=O)O)cc3)ccc2n1C (single isomer, unassigned) [Example 144]
c: N#Cc1ccncc1-c1ccc(C2CCCC(C(=O)Nc3ccc(C(F)(F)F)cc3F)[C@@H]2C(=O)O)cc1 (stereo in doubt)
d: Cc1nc2cc(S(=O)(=O)N(C)c3ccc([C@H]4C[C@@](C)(O)C[C@@H](C(=O)Nc5ccc(C(F)(F)F)cc5F)[C@@H]4C(=O)O)cc3)ccc2n1C (racemic)
e: Cc1nc2cc(S(=O)(=O)N(C)c3ccc([C@@H]4C[C@H](NCC(F)(F)F)C[C@H](C(=O)Nc5ccc(C(F)(F)F)cc5F)[C@H]4C(=O)O)cc3)ccc2n1C (stereo in doubt)
Prompt line: Ascending sort, IC50. Answer format: the labels, ordered as requested.
Response line: a, d, b, e, c
(a: 1.58 nM, d: 12.6 nM, b: 50.1 nM, e: 126 nM, c: 1000 nM)

---

Documented CC50 across a set of compounds
# System: SW48 human colorectal cancer cells (MSI-H cancer cells)
# experimental details: SW48 cell viability, CellTiter-Glo, 120 hours (Example B)
# assay context: Homo sapiens, SW48, 120 h, read-out: SW48 pCC50, SW48 cell viability, 120 hours incubation (converted); Table 2
Respond numerically; units are nM and should not be typed.

compound | experimental target | endpoint unit | endpoint value
Cc1nc2cc(S(=O)(=O)N(C)c3ccc([C@H]4C[C@@H](NCC(F)(F)F)C[C@@H](C(=O)Nc5ccc(C(F)(F)F)cc5F)[C@@H]4C(=O)O)cc3)ccc2n1C (stereo in doubt) | SW48 human colorectal cancer cells (MSI-H cancer cells) | nM | 251
Cc1nc2cc(S(=O)(=O)N(C)c3ccc([C@@H]4C[C@H](O[C@@H]5CCOC5)C[C@H](C(=O)Nc5ccc(C(F)(F)F)cc5F)[C@H]4C(=O)O)cc3)ccc2n1C (stereo in doubt) | SW48 human colorectal cancer cells (MSI-H cancer cells) | nM | 10000
Cc1nc2cc(S(=O)(=O)N(C)c3ccc([C@H]4CCC[C@@H](C(=O)Nc5ccc(C(F)(F)F)cc5F)[C@@H]4C(=O)O)cc3)cc(CCN(C)C)c2n1C | SW48 human colorectal cancer cells (MSI-H cancer cells) | nM | 398
[2H]C([2H])([2H])O[C@@H]1C[C@H](c2ccc(N(C)S(=O)(=O)c3ccc4c(c3)nc(C)n4C)cc2)[C@@H](C(=O)O)[C@H](C(=O)Nc2ccc(C(F)(F)F)cc2F)C1 (single isomer, unassigned) | SW48 human colorectal cancer cells (MSI-H cancer cells) | nM | 12600

Now consider the entry below.
Value of CC50 reported for the compound Cc1nc2cc(S(=O)(=O)N(C)c3ccc([C@H]4C[C@@H](O)C[C@@H](C(=O)Nc5ccc(C(F)(F)F)cc5F)[C@@H]4C(=O)O)cc3)ccc2n1C (single isomer, unassigned) is 1260
